# Test system: RSV strain A2
# experimental.protocol: microbe, parasite or virus in culture
# Assay type: cell-based
# assay.context: Table 3; HEp-2 cells, RSV A2, 4 days; read-out: RSV HEp-2 EC50
Please note: EC50 exactly at 500 nM is Not fulfilled. Only values below 500 nM get Fulfilled.

For orientation, consider the following solved cases.
# compound, label.class
records = [
    ("CC(C)C(=O)O[C@H]1[C@H](c2ccc3c(N)ncnn23)O[C@](C#N)(COP(=O)(N[C@@H](C)C(=O)O[C@@H]2CCOC2)Oc2ccccc2)[C@H]1OC(=O)C(C)C (single isomer, unassigned) [Example 243]", "Fulfilled"),
    ("CC(=O)O[C@H]1[C@H](c2ccc3c(N)ncnn23)O[C@](C#N)(CO[P@@](=O)(N[C@@H](C)C(=O)OCC2CCN(CC(F)(F)F)CC2)Oc2ccccc2)[C@H]1OC(C)=O [Example 119]", "Not fulfilled"),
    ("CC(C)C(=O)OC1C(c2ccc3c(N)ncnn23)OC(C#N)(COP(=O)(NC(C)C(=O)OC2CCN(C)C2)Oc2ccccc2)C1OC(=O)C(C)C (single isomer, unassigned) [Example 234]", "Fulfilled"),
    ("CC(C)OC(=O)C(C)NP(=O)(OCC1(C#N)OC(c2ccc3c(N)ncnn23)C(OC(=O)C(C)C)C1OC(=O)C(C)C)Oc1ccc(C(=O)N(C)C)cc1 (single isomer, unassigned) [Example 178]", "Not fulfilled"),
]

Let's switch to this compound now.
Q) Take the compound CC(C)OC(=O)C(C)NP(=O)(OCC1(C#N)OC(c2ccc3c(N)ncnn23)C(OC(=O)C(C)C)C1OC(=O)C(C)C)Oc1ccc(C(=O)N(C)C)cc1 (single isomer, unassigned) [Example 179] and say whether its EC50 is less than 500 nM.
A) Fulfilled

* * *

What EC50 was measured for each of the following?
# Test system: DENV2 replicon
# experimental.protocol: DENV-2 Huh-7 Rep EC50 (replicon luminescence)
# Format: cell-based
# assay.context: Dengue virus, DENV2, Huh-7, read-out: DENV Rep EC50
One number for each entry, in µM.

# compound, value.units, assay.value
measured = [
    ("CCOC(=O)[C@H](C)N[P@](=O)(OC[C@@]1(C#N)O[C@@H](c2ccc3c(N)ncnn23)[C@H](O)[C@@H]1O)Oc1ccccc1", "µM", 36.1),
    ("CCOC(=O)[C@H](C)N[P@](=O)(OC[C@@]1(C#N)O[C@@H](c2ccc3c(N)ncnn23)[C@H](OC(=O)C(C)C)[C@@H]1OC(=O)C(C)C)Oc1ccccc1 (single isomer, unassigned)", "µM", 6.17),
]

Switching to the query record.
Q) # query: EC50 of entry CC(C)C(=O)O[C@H]1[C@H](c2ccc3c(N)ncnn23)O[C@](C#N)(COP(=O)(N[C@@H](C)C(=O)OCC2CCOCC2)Oc2ccccc2)[C@H]1OC(=O)C(C)C (mixture of isomers)
A) 6.63

* * *

Quick note: these are IC50 numbers for system: DENV2 NS5 (Dengue virus type 2)
Give bare numbers, in nM.

As a guide, the following entries are already answered.
# structure.string, readout.label, assay.value
rows = [
    ("Nc1ncnn2c([C@@H]3O[C@](CCl)(COP(=O)(O)OP(=O)(O)OP(=O)(O)O)[C@@H](O)[C@H]3O)ccc12", "IC50", 7100),
    ("N#C[C@]1(COP(=O)(O)OP(=O)(O)OP(=O)(O)O)O[C@@H](c2ccc3c(N)ncnn23)[C@H](O)[C@@H]1O", "IC50", 830),
]

Switching to the query record.
Q) # query: IC50 of entry "[N-]=[N+]=N[C@]1(COP(=O)(O)OP(=O)(O)OP(=O)(O)O)O[C@@H](c2ccc3c(N)ncnn23)[C@H](O)[C@@H]1O"
A) 140

* * *

# Tested on: RSV strain A2
# experimental.protocol: microbe, parasite or virus in culture
# Type: cell-based
# assay.context: Table 3; HEp-2 cells, RSV A2, 4 days; read-out: RSV HEp-2 EC50
Please note: EC50 exactly at 0.09 µM is false (0). Only values below 0.09 µM get true (1).

For orientation, consider the following solved cases.
# compound, target.entity, label.class
measured = [
    ("CC(C)C(=O)O[C@H]1[C@H](c2ccc3c(N)ncnn23)O[C@](C#N)(COP(=O)(N[C@@H](C)C(=O)OC2COC2)Oc2ccccc2)[C@H]1OC(=O)C(C)C (single isomer, unassigned) [Example 186]", "RSV strain A2", "true (1)"),
    ("CCC(=O)O[C@H]1[C@H](c2ccc3c(N)ncnn23)O[C@](C#N)(COP(=O)(N[C@@H](C)C(=O)OC2COC2)Oc2ccccc2)[C@H]1OC(=O)CC (single isomer, unassigned) [Example 175]", "RSV strain A2", "true (1)"),
    ("CCC(=O)OC1C(c2ccc3c(N)ncnn23)OC(C#N)(COP(=O)(NC(C)C(=O)OCC2COC2)Oc2ccccc2)C1OC(=O)CC (single isomer, unassigned) [Example 205]", "RSV strain A2", "false (0)"),
    ("CCC(=O)O[C@H]1[C@H](c2ccc3c(N)ncnn23)O[C@](C#N)(CO[P@](=O)(N[C@@H](C)C(=O)OCC2CC2)Oc2ccccc2)[C@H]1OC(=O)CC [Example 100]", "RSV strain A2", "true (1)"),
    ("CC(=O)O[C@H]1[C@H](c2ccc3c(N)ncnn23)O[C@](C#N)(COP(=O)(N[C@@H](C)C(=O)OC2CCOCC2)Oc2ccccc2)[C@H]1OC(C)=O (single isomer, unassigned) [Example 164]", "RSV strain A2", "false (0)"),
    ("CC(=O)O[C@H]1[C@H](c2ccc3c(N)ncnn23)O[C@](C#N)(CO[P@](=O)(N[C@@H](C)C(=O)OCC2CCN(CC(F)(F)F)CC2)Oc2ccccc2)[C@H]1OC(C)=O [Example 120]", "RSV strain A2", "false (0)"),
]

Q) Take the compound CC(=O)O[C@H]1[C@H](c2ccc3c(N)ncnn23)O[C@](C#N)(CO[P@@](=O)(N[C@@H](C)C(=O)OCC2CCOCC2)Oc2ccccc2)[C@H]1OC(C)=O [Example 111] and say whether its EC50 is less than 0.09 µM.
A) false (0)

Q) Lookup CC(C)C(=O)OC1C(c2ccc3c(N)ncnn23)OC(C#N)(COP(=O)(NC(C)C(=O)OC2CCN(C)C2)Oc2ccccc2)C1OC(=O)C(C)C (single isomer, unassigned) [Example 230]
A) false (0)

Q) Lookup CC(C)C(=O)O[C@H]1[C@H](c2ccc3c(N)ncnn23)O[C@](C#N)(COP(=O)(N[C@@H](C)C(=O)OCC2CCOCC2)Oc2ccccc2)[C@H]1OC(=O)C(C)C (single isomer, unassigned) [Example 183]
A) true (1)

* * *

# Tested on: RSV A2
# experimental.protocol: RSV NHBE EC50 (RSV A2 antiviral assay in NHBE cells)
# Assay type: cell-based
# assay.context: human respiratory syncytial virus, NHBE, Table 5 comparative activity, 2',3'-OH vs -OC(O)iPr; read-out: RSV NHBE EC50
readout.label: EC50 (nM)
Give bare numbers, in nM.

# compound, target.entity, EC50 / nM
measured = [
    ("C[C@H](NP(=O)(OC[C@@]1(C#N)O[C@@H](c2ccc3c(N)ncnn23)[C@H](O)[C@@H]1O)Oc1ccccc1)C(=O)OCC1CCOCC1 (stereo partly drawn)", "RSV A2", 2230),
    ("C[C@H](NP(=O)(OC[C@@]1(C#N)O[C@@H](c2ccc3c(N)ncnn23)[C@H](O)[C@@H]1O)Oc1ccccc1)C(=O)O[C@H]1CCN(C)C1 (stereo partly drawn)", "RSV A2", 3260),
]

Switching to the query record.
Q) # query: EC50 of entry CC(C)C(=O)O[C@H]1[C@H](c2ccc3c(N)ncnn23)O[C@](C#N)(COP(=O)(N[C@@H](C)C(=O)OC2COC2)Oc2ccccc2)[C@H]1OC(=O)C(C)C (stereo partly drawn)
A) 13

* * *

# target.entity: RSV RNP complexes (Human respiratory syncytial virus A, UniProt P28887)
# Construct: The supernatant (S3) fraction, containing the enriched RSV RNP complexes, was collected; endogenous in cells; detergent-extracted S3 fraction
# Sequence (P03421 whole entry): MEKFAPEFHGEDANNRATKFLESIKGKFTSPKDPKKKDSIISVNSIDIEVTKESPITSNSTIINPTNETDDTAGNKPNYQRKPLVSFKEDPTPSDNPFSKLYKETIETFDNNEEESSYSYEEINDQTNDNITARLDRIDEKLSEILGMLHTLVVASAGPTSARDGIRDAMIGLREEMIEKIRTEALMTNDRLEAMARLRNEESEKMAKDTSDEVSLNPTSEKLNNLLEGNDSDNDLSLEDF
# Sequence (P28887 whole entry): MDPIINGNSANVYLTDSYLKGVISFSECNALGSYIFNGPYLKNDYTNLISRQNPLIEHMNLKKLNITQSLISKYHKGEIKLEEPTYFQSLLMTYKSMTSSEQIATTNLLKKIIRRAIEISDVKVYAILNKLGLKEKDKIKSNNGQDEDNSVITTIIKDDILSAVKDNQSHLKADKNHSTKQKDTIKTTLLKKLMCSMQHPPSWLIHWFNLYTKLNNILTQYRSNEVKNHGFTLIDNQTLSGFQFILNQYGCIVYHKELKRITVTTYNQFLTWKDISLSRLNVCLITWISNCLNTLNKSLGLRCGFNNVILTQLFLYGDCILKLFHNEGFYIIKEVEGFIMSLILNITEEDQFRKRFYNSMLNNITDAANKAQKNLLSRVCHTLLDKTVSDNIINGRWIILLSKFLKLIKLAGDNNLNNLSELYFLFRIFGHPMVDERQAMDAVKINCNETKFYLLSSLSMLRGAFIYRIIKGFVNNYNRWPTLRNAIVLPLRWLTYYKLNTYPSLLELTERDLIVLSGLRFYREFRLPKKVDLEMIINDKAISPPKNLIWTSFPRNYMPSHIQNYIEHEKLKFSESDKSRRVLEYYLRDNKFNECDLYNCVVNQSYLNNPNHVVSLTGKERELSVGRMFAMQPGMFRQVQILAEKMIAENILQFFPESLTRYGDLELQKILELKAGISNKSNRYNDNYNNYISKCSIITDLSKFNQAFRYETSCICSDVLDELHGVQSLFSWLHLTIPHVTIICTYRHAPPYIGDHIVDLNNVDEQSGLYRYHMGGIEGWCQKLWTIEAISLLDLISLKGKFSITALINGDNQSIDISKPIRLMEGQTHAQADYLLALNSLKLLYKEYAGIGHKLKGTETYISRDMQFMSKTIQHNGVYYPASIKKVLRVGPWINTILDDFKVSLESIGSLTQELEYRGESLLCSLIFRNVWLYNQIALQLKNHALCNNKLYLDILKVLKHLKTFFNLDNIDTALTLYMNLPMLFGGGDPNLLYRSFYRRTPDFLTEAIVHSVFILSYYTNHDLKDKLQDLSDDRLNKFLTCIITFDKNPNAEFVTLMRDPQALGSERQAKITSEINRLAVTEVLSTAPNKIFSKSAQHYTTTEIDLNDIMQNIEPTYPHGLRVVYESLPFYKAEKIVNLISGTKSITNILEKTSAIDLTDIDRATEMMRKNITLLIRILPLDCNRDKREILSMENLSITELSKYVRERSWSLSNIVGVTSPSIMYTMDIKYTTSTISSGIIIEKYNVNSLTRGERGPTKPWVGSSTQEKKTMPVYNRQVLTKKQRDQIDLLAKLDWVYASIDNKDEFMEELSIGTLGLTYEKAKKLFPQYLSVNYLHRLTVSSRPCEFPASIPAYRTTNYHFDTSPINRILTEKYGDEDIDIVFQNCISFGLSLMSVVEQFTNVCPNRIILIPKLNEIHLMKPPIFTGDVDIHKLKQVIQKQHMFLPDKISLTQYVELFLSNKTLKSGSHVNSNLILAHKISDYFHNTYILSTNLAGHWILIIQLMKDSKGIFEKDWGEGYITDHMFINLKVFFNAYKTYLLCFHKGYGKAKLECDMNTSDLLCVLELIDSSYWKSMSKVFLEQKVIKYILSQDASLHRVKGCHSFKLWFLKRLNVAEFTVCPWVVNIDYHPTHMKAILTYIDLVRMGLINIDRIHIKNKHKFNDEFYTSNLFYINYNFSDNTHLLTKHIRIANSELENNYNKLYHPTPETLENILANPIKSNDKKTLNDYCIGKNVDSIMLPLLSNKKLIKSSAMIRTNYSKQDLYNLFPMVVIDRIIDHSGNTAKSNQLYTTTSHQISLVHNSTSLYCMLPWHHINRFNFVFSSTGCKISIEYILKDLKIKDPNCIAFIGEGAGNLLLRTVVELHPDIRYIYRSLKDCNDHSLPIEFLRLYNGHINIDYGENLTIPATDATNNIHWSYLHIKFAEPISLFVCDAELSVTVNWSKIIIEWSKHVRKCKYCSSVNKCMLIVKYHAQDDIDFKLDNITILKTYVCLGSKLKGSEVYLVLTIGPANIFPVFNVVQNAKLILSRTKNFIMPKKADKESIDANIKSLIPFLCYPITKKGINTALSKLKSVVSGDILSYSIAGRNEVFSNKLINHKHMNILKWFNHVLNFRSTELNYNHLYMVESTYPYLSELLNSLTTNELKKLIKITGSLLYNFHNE
# experimental.protocol: RSV RNP assay (transcription)
readout.label: pIC50
One number for each entry, as −log10 of the molar value.

# compound, pIC50
measured = [
    ("Nc1ncnn2c([C@@H]3O[C@](CCl)(COP(=O)(O)OP(=O)(O)OP(=O)(O)O)[C@@H](O)[C@H]3O)ccc12 [—CH2Cl]", 5.96),
]

Switching to the query record.
Q) # query: pIC50 of entry N#C[C@]1(COP(=O)(O)OP(=O)(O)OP(=O)(O)O)O[C@@H](c2ccc3c(N)ncnn23)[C@H](O)[C@@H]1O [—CN]
A) 7.36

* * *

# Test system: HCV Rep 1B
# experimental.protocol: HCV Rep 1B EC50 (replicon luciferase)
# Type: cell-based
# assay.context: Hepatitis C virus; Table 5 comparative activity, 2',3'-OH vs -OC(O)iPr; read-out: HCV Rep1B EC50
readout.label: pEC50
Give bare numbers, as −log10 of the molar value.

Q) # query: pEC50 of entry COC(=O)[C@H](C)N[P@](=O)(OC[C@@]1(C#N)O[C@@H](c2ccc3c(N)ncnn23)[C@H](O)[C@@H]1O)Oc1ccccc1 [Example 52]
A) 5.40
